Molecular target: MBP-FoxP3dN (Mus musculus, UniProt Q99JB6 188-423)
Sequence: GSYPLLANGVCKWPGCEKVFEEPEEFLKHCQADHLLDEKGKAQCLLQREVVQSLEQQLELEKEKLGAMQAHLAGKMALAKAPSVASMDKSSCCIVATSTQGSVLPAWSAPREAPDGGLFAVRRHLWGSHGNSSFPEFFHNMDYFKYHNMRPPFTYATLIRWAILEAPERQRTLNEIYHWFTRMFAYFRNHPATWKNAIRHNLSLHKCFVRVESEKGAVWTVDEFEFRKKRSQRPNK
Experiment: PD-seq (MBP pull-down with sequencing); 20 mM Tris-HCl pH 7.5, 100 mM NaCl, 1.5 mM MgCl2, 0.4 uM protein, 0.1 uM dsDNA library, 30 min, room temperature, amylose pull-down; high values mean tight binding
Settings: protein: recombinant; tags: His6-MBP; chain copies: 2; dsDNA, one strand shown
In all, about 16,000 sequences were measured (“rpm ratio (pull-down/input)”: median about 0.5, highest 2% from about 5.5 on). The full list was thinned out, with the highest values kept by preference.
ENDPOINT LABEL: binding signal

Completed entries (count: 10):
Exercise: Look up binding signal: GATGATTGTTCTCCCAGCTGATGAATTTGCCATCTCGAGTAAACAAATTTTCCTAATCTTTCTGTTCAAGCGCCATCTAC
Key: 2.56 RPM ratio (pull-down/input)

Exercise: Another sequence to look at: GATGATTGTTCTCCCAGCTGATGAATTTGCATGTTCGAGTAAACAAATTTTCCTAATCTTTCTGTTCAAGCGCCATCTAC
Key: 3.83 RPM ratio (pull-down/input)

Exercise: Another sequence to look at: GATGATTGTTCTCCCAGCTGATGAATTTTTGCATTCGAGTAAACAAATTTTCCTAATCTTTCTGTTCAAGCGCCATCTAC
Key: 6.58 RPM ratio (pull-down/input)

Exercise: Another sequence to look at: GATGATTGTTCTCCCAGCTGATGAATTCGCCATGTCGAGTAAACAAATTTTCCTAATCTTTCTGTTCAAGCGCCATCTAC
Key: 0.854 RPM ratio (pull-down/input)

Exercise: Another sequence to look at: GATGATTGTTCTCCCAGCTGATGAATTGCATCTCTCGAGTAAACAAATTTTCCTAATCTTTCTGTTCAAGCGCCATCTAC
Key: 4.07 RPM ratio (pull-down/input)

Exercise: Another sequence to look at: GATGATTGTTCTCCCAGCTGATGAATTCGCATCCTCGAGTAAACAAATTTTCCTAATCTTTCTGTTCAAGCGCCATCTAC
Key: 5.74 RPM ratio (pull-down/input)

Exercise: Another sequence to look at: GATGATTGTTCTCCCAGCTGATGAATTGCATTCCTCGAGTAAACAAATTTTCCTAATCTTTCTGTTCAAGCGCCATCTAC
Key: 3.39 RPM ratio (pull-down/input)

Exercise: Another sequence to look at: GATGATTGTTCTCCCAGCTGATGAATTCGCATGTTCGAGTAAACAAATTTTCCTAATCTTTCTGTTCAAGCGCCATCTAC
Key: 1.95 RPM ratio (pull-down/input)

Exercise: Another sequence to look at: GATGATTGTTCTCCCAGCTGATGAATTGCGTAATTCGAGTAAACAAATTTTCCTAATCTTTCTGTTCAAGCGCCATCTAC
Key: 1.58 RPM ratio (pull-down/input)

Exercise: Another sequence to look at: GATGATTGTTCTCCCAGCTGATGAATTTCCCATGTCGAGTAAACAAATTTTCCTAATCTTTCTGTTCAAGCGCCATCTAC
Key: 0.287 RPM ratio (pull-down/input)

Next:
Exercise: Look up binding signal: GATGATTGTTCTCCCAGCTGATGAATTCATGATGTCGAGTAAACAAATTTTCCTAATCTTTCTGTTCAAGCGCCATCTAC
Key: 0.987 RPM ratio (pull-down/input)

Exercise: Another sequence to look at: GATGATTGTTCTCCCAGCTGATGAATTTGCATTCTCGAGTAAACAAATTTTCCTAATCTTTCTGTTCAAGCGCCATCTAC
Key: 6.29 RPM ratio (pull-down/input)

Exercise: Another sequence to look at: GATGATTGTTCTCCCAGCTGATGAATTTTGCATGTCGAGTAAACAAATTTTCCTAATCTTTCTGTTCAAGCGCCATCTAC
Key: 6.69 RPM ratio (pull-down/input)

Exercise: Another sequence to look at: GATGATTGTTCTCCCAGCTGATGAATTCTGCATGTCGAGTAAACAAATTTTCCTAATCTTTCTGTTCAAGCGCCATCTAC
Key: 5.95 RPM ratio (pull-down/input)

Exercise: Another sequence to look at: GATGATTGTTCTCCCAGCTGATGAATTTGCATATTCGAGTAAACAAATTTTCCTAATCTTTCTGTTCAAGCGCCATCTAC
Key: 2.72 RPM ratio (pull-down/input)
